- Tested on: A549 NSCLC
- protocol-summary: NCI tumour cell line growth inhibition, 48 h
measured-quantity: TGI

Solved entries:
Qu. Need TGI of COc1ccc(N2C(=O)CC(c3c[nH]c4ncccc34)C2=O)cc1 (centres undefined) , thanks.
Ans. > 100 µM

Qu. Need TGI of `N#Cc1cc(S(=O)(=O)Nc2nc3ccccc3s2)c(SCc2ccccc2)cc1Cl` , thanks.
Ans. 35.3 µM

Qu. Need TGI of CC(=O)OCC(Br)C1(C)CCC(C(C)(C)Br)O1 (centres undefined) , thanks.
Ans. > 100 µM

Qu. Need TGI of `C/C(=N\Nc1nc2ccccc2s1)c1cc(C)ncn1` , thanks.
Ans. > 45.2 µM

Qu. Need TGI of COC(=O)C1=C(C)N2CCOC2CC1c1ccccc1 (centres undefined) , thanks.
Ans. > 100 µM

Switching to the query record.
Qu. Need TGI of `CO[C@H]1CC(c2ccc[nH]2)=N[C@]12O[C@@H](C)C[C@@H]1CCCCCCCc3ccc([nH]3)[C@H]12` , thanks.
Ans. 7.31 µM

###

- System: HOP-62 NSCLC
- protocol-summary: NCI tumour cell line growth inhibition, 48 h
# TGI per entry

Qu. Need TGI of `C/C(=N\Nc1nc2ccccc2s1)c1cc(C)ncn1` , thanks.
Ans. 18.3 µM

Continuing:
Qu. Need TGI of `Cc1cc(N(CCC#N)CCC#N)ccc1C=Nc1ccc(C(=O)NN2C(=O)/C(=C/c3ccc(N(CCC#N)CCC#N)cc3)N=C2c2cc([N+](=O)[O-])ccc2Cl)cc1` , thanks.
Ans. > 100 µM

Qu. Need TGI of `CC(=O)c1sc(=N)n(-c2c(C)cccc2C)c1C` , thanks.
Ans. > 100 µM

Qu. Need TGI of O=C1C=CC(O)C2C1CC13SSC4(CC5C(=O)C=CC(O)C5N4C1=O)C(=O)N23 (configuration not stated) , thanks.
Ans. 1.15 µM

Qu. Need TGI of `c1ccc(CNc2nc(Nc3ccccc3)nc3ccccc23)cc1` , thanks.
Ans. 5.17 µM

Qu. Need TGI of `O=S(=O)(C/C(=N\O)c1ccccc1)c1ccccc1` , thanks.
Ans. > 100 µM

###

- Test system: NCI-H23 lung
- protocol-summary: NCI tumour cell line growth inhibition, 48 h
measured-quantity: TGI

Solved entries:
Qu. Need TGI of CC(=O)C1=CCC2c3[nH]c4ccccc4c3CCN2C1 (centres undefined) , thanks.
Ans. > 100 µM

Qu. Need TGI of `COc1cc(Cl)cc(-c2nn(-c3cccc(NC(=O)Nc4ccc(Cl)c(C(F)(F)F)c4)c3)cc2-c2ccncc2)c1` , thanks.
Ans. 6.23 µM

Qu. Need TGI of O=c1ccn(C2OC(CN(O)CCC3C(CO)OC(n4ccc(=O)[nH]c4=O)C3O)C(O)C2O)c(=O)[nH]1 (centres undefined) , thanks.
Ans. > 100 µM

Continuing:
Qu. Need TGI of `COP(=O)(OC)/C(=C\c1cn(C(c2ccccc2)(c2ccccc2)c2ccccc2)cn1)NC(C)=O` , thanks.
Ans. > 100 µM

Qu. Need TGI of `CCOC(=O)C1=C(Nc2ccc(Cl)c(Cl)c2)OC/C1=N\NS(=O)(=O)c1ccc(C)cc1` , thanks.
Ans. > 100 µM
